System: Klebsiella pneumoniae
Conditions: Concentration 32 ug.mL-1; ASSAY_TEST Inhibition of Bacterial Growth; detection method Absorption (OD600); MEDIA CAMHB; plate type 384well; NBS; CORNING #3640; time 18 hr
Description: Antibacterial activity against Klebsiella pneumoniae MDR ATCC 70063 (CO-ADD:GN_003); MIC in CAMBH media using NBS plates, by OD(600)
Measured potencies and affinities stand elsewhere.
Inhibition values, listed per item

>  <compound>
Cn1ccnc1C1c2ccc3ccccc3c2Oc2nc3c(c(N)c21)CCCCC3 (stereo unspecified)

>  <Inhibition, %>
8.79

$$$$
>  <compound>
CCOC(=O)C1=C(C)Oc2nc3c(c(N)c2C1c1ccc(O)c(OC)c1)CCC3 (stereo unspecified)

>  <Inhibition, %>
2.99

$$$$
>  <compound>
COC(=O)C(NC(=O)c1ccccc1)=C(C)c1ccccc1

>  <Inhibition, %>
19.09

$$$$
>  <compound>
C#CCN1CCc2nc3nc(NC4CCN(Cc5ccccc5)CC4)c(C#N)cc3c(N)c2C1

>  <Inhibition, %>
10.49

$$$$
>  <compound>
COC(=O)C(=Cc1ccc(OC)cc1)NC(=O)c1ccccc1

>  <Inhibition, %>
13.3

$$$$
>  <compound>
N#Cc1cc(C#N)c(NCCC2CCN(Cc3ccccc3)CC2)nc1N

>  <Inhibition, %>
15.31

$$$$
>  <compound>
N#Cc1c(-c2ccccc2)c2ccc3ccccc3c2oc1=O

>  <Inhibition, %>
8.94

$$$$
>  <compound>
O=C(COc1ccc2ccccc2c1)N/N=C/c1c[nH]c2ccccc12

>  <Inhibition, %>
8.99

$$$$
>  <compound>
O=C(NN=Cc1c[nH]c2ccccc12)c1cccc2ccccc12

>  <Inhibition, %>
12.1

$$$$
>  <compound>
COc1cc(CCC(N)=O)ccc1O

>  <Inhibition, %>
11.33

$$$$
>  <compound>
Cn1cc(C(=O)NN)c2ccccc21

>  <Inhibition, %>
3.16

$$$$

###

System: Candida albicans
Details: 32 ug/mL
Description: Antifungal activity against Candida albicans ATCC 90028 (CO-ADD:FG_001); MIC in YNB media using NBS plates, by OD630
Entries with a potency or affinity are not part of this list.
Listing of recorded Inhibition by entry.

>  <compound>
COC(=O)C1CCN(Cc2ccccc2)CC1

>  <Inhibition (%)>
4.82

$$$$
>  <compound>
N#Cc1c(N)nc(NCc2ccccc2)c(C#N)c1-c1ccccc1

>  <Inhibition (%)>
0.34

$$$$
>  <compound>
Cl.ClCCCCCN1CCCCC1

>  <Inhibition (%)>
2.45

$$$$
>  <compound>
Cc1n[nH]c2c1C(c1ccc([N+](=O)[O-])cc1)C(C#N)=C(N)O2 (configuration not stated)

>  <Inhibition (%)>
3.15

$$$$
>  <compound>
N#Cc1cc(C#N)c(NCCO)nc1N

>  <Inhibition (%)>
1.22

$$$$
>  <compound>
Nc1c2c(nc3c1C(c1ccc(Cl)c(Cl)c1)c1ccc4ccccc4c1O3)CCCC2 (configuration not stated)

>  <Inhibition (%)>
4.63

$$$$
>  <compound>
CCOC(=O)c1cn(C)c2ccccc12

>  <Inhibition (%)>
7.9

$$$$
>  <compound>
C=C=CCN(C)Cc1cc2ccccc2n1C.O=C(O)C(=O)O

>  <Inhibition (%)>
1.88

$$$$
>  <compound>
COC(=O)C(C#N)=Cc1ccccc1

>  <Inhibition (%)>
3.86

$$$$
>  <compound>
Cc1ccc(CNNC(N)=O)cc1.Cl

>  <Inhibition (%)>
-0.27

$$$$
>  <compound>
COc1ccc2cc(C3C(C(C)=O)=C(C)Oc4nc5c(c(N)c43)CCC5)c(Cl)nc2c1 (configuration not stated)

>  <Inhibition (%)>
12.4

$$$$
>  <compound>
CCOC(=O)C1=C(C)OC(N)=C(C#N)C1c1cccnc1 (configuration not stated)

>  <Inhibition (%)>
0.38

$$$$
